The origin of these recorded values is PubChem BioAssay (NCI).

# ASSAY INFO: NCI Yeast Anticancer Drug Screen. Data for the sgs1 mgt1 strain (AID 161);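 note: 0% = growth of cultures given vehicle only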
# CONDITION: S. cerevisiae sgs1 mgt1 strain, at 5.0 µM (retest, dose inferred, filed as 0.5), hits give high values
# Protocol: Growth inhibition of yeast strains with defined genetic alterations is measured as a screen for potential anti-cancer activity. Selected strains with alterations in DNA damage repair or cell cycle control were exposed to compounds and growth inhibition was measured relative to vehicle treated controls. The strain used in this assay is sgs1 mgt1
The panel holds about 79,000 compounds, 15% with a hit somewhere; the sample as a whole holds those more often.
MEASURED PARAMETER: growth inhibition (%)
Quick reminder: number only, in %, skip the unit.

{"COMPOUND": "CC(=O)[C@]1(O)Cc2c(O)c3c(c(O)c2[C@@H](OC2CC(N)C(O)C(C)O2)C1)C(=O)c1c(OCc2ccccc2)cccc1C3=O (stereo not given in full)", "DISPLAY UNIT": "%", "growth inhibition": 11}

Enquiry: What does the record list as growth inhibition for O=c1ccc(N=Nc2ccccc2)ccc1O ?
Return: 44

Enquiry: Would you mind doing Cc1cccc2c1N=C(C(F)(F)F)CC2=O as well?
Return: -44

Enquiry: Would you mind doing Cc1cc(O)c2c(c1O)C(=O)C13C(=C2O)C(=O)C2C(O)C1C1C(O)C3C(=O)C3=C(O)c4c(O)cc(C)c(O)c4C(=O)C321 (stereo not given) as well?
Return: 37

====

# ASSAY INFO: NCI Yeast Anticancer Drug Screen. Data for the rad18 strain (AID 177)
# CONDITION: S. cerevisiae rad18 mutant growth inhibition; at 33.0 µM; hits give high values
The panel holds about 79,000 compounds, 15% with a hit somewhere; the sample as a whole holds those more often.
MEASURED PARAMETER: growth inhibition (%)
Quick reminder: number only, in %, skip the unit.

Known growth inhibition results, listed for orientation:
{"COMPOUND": "CCN(CC)N=Nc1c(C(N)=O)n[nH]c1C", "growth inhibition, %": 23}
{"COMPOUND": "OB(O)c1ccccc1C#Cc1ccccc1B(O)O", "growth inhibition, %": 40}
{"COMPOUND": "COc1ccc(N2C(=O)CC(Cl)C2=O)cc1 (stereo not drawn)", "growth inhibition, %": 38}
{"COMPOUND": "Cc1cc(O)c2c(c1O)C(=O)C13C(=C2O)C(=O)C2C(O)C1C1C(O)C3C(=O)C3=C(O)c4c(O)cc(C)c(O)c4C(=O)C321 (stereo not drawn)", "growth inhibition, %": 73}

Enquiry: What does the record list as growth inhibition for CC(=O)OCC1OC(O[C@H]2C=C[C@@H](C(=O)OCc3ccccc3)n3c(=O)n(-c4ccccc4)c(=O)n32)C(OC(C)=O)C(OC(C)=O)C1OC(C)=O (stereo partly drawn) ?
Return: 59

Enquiry: Would you mind doing C/C(=N\NC(=S)NC1CCCC1)c1ccccn1 as well?
Return: 99

Enquiry: Would you mind doing CC(=O)O[C@H]1C(=O)[C@@]2(C)[C@H]([C@H](OC(=O)c3ccccc3)[C@]3(O)C[C@H](OC(=O)[C@H](O)[C@@H](NC(=O)c4ccccc4)c4ccccc4)C(C)=C1C3(C)C)[C@]1(OC(C)=O)CO[C@@H]1C[C@@H]2O as well?
Return: 2

Enquiry: Would you mind doing CC(=O)c1cc2c(Cl)cc(Cl)cc2oc1=O as well?
Return: -11
